system: Enterococcus faecium; test: In vitro antibacterial activity against gram-positive Enterococcus faecium ATCC 8043; format: functional; conditions: Enterococcus faecium, ATCC 8043; read-out: MIC
result type: MIC (µg/mL)

Recorded results for 5 compounds are shown here.
Request: What measured MIC goes with Cc1c(N2CCCC2)c(F)cn2c(=O)c(C(=O)O)cc(C3CC3)c12 ?
Result: 0.2

Request: For the compound shown here, Cc1c(N2CC[C@H](NCC(F)(F)F)C2)c(F)cn2c(=O)c(C(=O)O)cc(C3CC3)c12 , give the reported MIC.
Result: 0.39

Request: Query (compound): Cc1c(N2CCC3(CCCC3N)C2)c(F)cn2c(=O)c(C(=O)O)cc(C3CC3)c12 (stereo unspecified) ; field requested: MIC
Result: 0.1

Request: # lookup: MIC of Cc1c(N2CC[C@@H](NCCF)C2)c(F)cn2c(=O)c(C(=O)O)cc(C3CC3)c12
Result: 0.1

Request: Item Cc1c(N2C[C@@H](N)[C@H](C3CC3)C2)c(F)cn2c(=O)c(C(=O)O)cc(C3CC3)c12 (stereo in doubt; 3t) has what recorded MIC?
Result: 0.1

a: Cc1c(N2C[C@@H]3CCCC[C@]3(CN)C2)c(F)cn2c(=O)c(C(=O)O)cc(C3CC3)c12
b: Cc1c(N2CC[C@@H]3CNC[C@@H]32)c(F)cn2c(=O)c(C(=O)O)cc(C3CC3)c12
c: COCCN[C@H]1CCN(c2c(F)cn3c(=O)c(C(=O)O)cc(C4CC4)c3c2C)C1
d: Cc1c(N2CCC(CN)C2)c(F)cn2c(=O)c(C(=O)O)cc(C3CC3)c12 (stereo unspecified)
e: Cc1c(N2C[C@H]3NCCO[C@@H]3C2)c(F)cn2c(=O)c(C(=O)O)cc(C3CC3)c12
Request: Rank order required: MIC, descending. Sort and list the labels as requested.
Result: c, e, b, a, d
